This listing pairs variants with measured protein stability index.
B1: ADAMTS4 (parent)
chain: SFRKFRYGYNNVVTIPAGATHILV

- Variants of: B1
- ASSAY_INFO: protein stability index of a GFP-peptide fusion (GPS, HEK-293T) (PSI 1-6); higher = more stable;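 note: lentivirally expressed fusions sorted by FACS into six bins by GFP to DsRed ratio, PSI derived from sequencing read proportions per bin multiplied by bin number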
- CONDITION_CONTEXT: c terminus: a fixed tail appended
Could you respond with only the numeric value?

Examples with answers:
INSERT INTO assay_data (mutant_code, assay_result) VALUES
  ('T20E', 2.56),
  ('P16V', 1.87),
  ('G18P', 2.06);

Tell me measured protein stability index for `V13H` please.
1.74

Given `G18Q` , respond with its protein stability index.
2.88
